Assign Emax to each entry below.
MEASUREMENT_TARGET: M1 muscarinic receptor (Homo sapiens)
Construct: expressed in transfected cells; host or cells: CHO (M1-CHO)
Sequence (P11229 whole entry): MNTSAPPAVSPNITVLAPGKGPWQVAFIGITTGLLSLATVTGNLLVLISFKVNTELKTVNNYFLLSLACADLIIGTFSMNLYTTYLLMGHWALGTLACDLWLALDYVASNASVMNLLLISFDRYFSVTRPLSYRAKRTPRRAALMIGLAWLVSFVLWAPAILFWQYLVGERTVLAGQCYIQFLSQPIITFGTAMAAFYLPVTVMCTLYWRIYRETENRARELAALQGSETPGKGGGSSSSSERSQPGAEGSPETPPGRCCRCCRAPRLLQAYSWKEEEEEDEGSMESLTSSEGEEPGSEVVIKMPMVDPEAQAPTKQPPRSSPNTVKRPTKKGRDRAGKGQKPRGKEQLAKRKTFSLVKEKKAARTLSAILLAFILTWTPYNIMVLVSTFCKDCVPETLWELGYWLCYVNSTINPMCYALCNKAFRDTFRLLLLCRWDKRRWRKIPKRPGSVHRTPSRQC
TEST_METHOD_NOTES: Functional mobilization of intracellular calcium (FLIPR), M1-CHO cells
Assay type: cell-based
CONDITION_INFO: 100% efficacy = maximum response obtained with the Carbachol control

[in] Entry COc1ccccc1C1(C#N)CCN(C[C@@H]2C[C@H]3C=C[C@H]2C3)CC1 [Compound 359] needs its Emax filled in; supply it.
[out] 25 to 100%

[in] Kindly indicate its recorded Emax. Item: Cc1ccc(F)cc1C1CCN([C@H]2CC[C@H]3CC[C@H]2C3)CC1 [Compound 81]
[out] 25 to 100%

[in] Please give the documented Emax of COc1ccccc1C1CCN(C2CCC3CCC2C3)CC1 (centres unmarked) [Compound 221]
[out] 25 to 100%

[in] Give the measured Emax for COc1ccc(F)cc1C1CCN(C2CC3CCC2C3)CC1 (centres unmarked) [Compound 371]
[out] 25 to 100%

[in] Recall and state the measured Emax for CCOC(=O)N1CCC(CN2CCC(c3ccc(F)cc3OC)CC2)CC1 [Compound 364] .
[out] 25 to 100%

[in] Please indicate Emax recorded for c1ccc(-c2ccccc2C2CCN([C@H]3C[C@H]4CC[C@H]3C4)CC2)cc1 [Compound 110]
[out] < 25%

[in] Give me measured Emax, please, for this compound: COc1ccc(OC)c(C2CCN(CC3C[C@H]4CC[C@H]3C4)CC2)c1 (some centres unmarked) [Compound 344]
[out] < 25%

[in] Please list Emax recorded for the compound COc1ccc(C)cc1C1CCN(CC2C[C@H]3CC[C@H]2C3)CC1 (some centres unmarked) [Compound 107]
[out] 25 to 100%

[in] Return value of Emax for input COc1ccc(C(=O)C(C)(C)C)cc1C1CCN([C@H]2C[C@H]3CC[C@H]2C3)CC1 [Compound 109] , no commentary.
[out] 25 to 100%

[in] Return reported Emax. Input compound: COc1ccccc1C1CCN(C2CCCCC2)CC1 [Compound 113]
[out] 25 to 100%

[in] Identify the reported Emax for the following entry. COc1ccc(C)cc1C1CCN(C2C[C@H]3CC[C@H]2C3)CC1 (some centres unmarked) [Compound 51]
[out] 25 to 100%

[in] Give Emax for CCOC(=O)N1CCC(CN2CCC(c3cc(Cl)ccc3OC)CC2)CC1 [Compound 14]
[out] 25 to 100%

[in] In one line, give reported Emax of the entry COc1ccccc1C1CCN(CC2CCCC2)CC1 [Compound 232] .
[out] 25 to 100%

[in] Tell us which Emax value is on record for COc1ccccc1C1CCN(CC2CC3CCC(C3)C2)CC1 (centres unmarked) [Compound 28]
[out] < 25%

[in] Return the recorded Emax value; entry: O=C(COc1ccccc1C1CCN([C@H]2C[C@H]3CC[C@H]2C3)CC1)c1ccc(F)cc1 [Compound 12]
[out] < 25%

[in] Please give the documented Emax of COc1ccc(-c2ccc(S(C)(=O)=O)cc2)cc1C1CCN(C2CCCC2)CC1 [Compound 275]
[out] 25 to 100%

[in] Name the recorded Emax of the item CNC(=O)c1ccc(-c2ccc(OC)c(C3CCN(C4CC5CCC(C5)C4)CC3)c2)cc1 (centres unmarked) [Compound 196] in your answer.
[out] < 25%
